tested system: biotinylated CD59 (Homo sapiens, UniProt P13987)
Construct: Recombinant soluble human CD59 with an additional C-terminal cysteine residue
Sequence (P13987 26-102 limits assumed): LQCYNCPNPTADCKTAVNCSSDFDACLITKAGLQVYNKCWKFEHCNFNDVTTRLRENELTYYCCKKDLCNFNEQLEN
method notes: mRNA-display cyclic peptide screen against CD59-biotin, NGS abundance after 6th selection round
condition set: counts normalised by total counts of NGS sample Seq II, sheet R6
measured quantity: Percentage of the pool, Seq II (%)
A number alone suffices; assume %.

Past entries and their recorded results:
sequence: TAWGNRQIQYY
tested system: biotinylated CD59 (Homo sapiens, UniProt P13987)
Percentage of the pool, Seq II / %: 0.016

sequence: FVRGDLYSVIG
tested system: biotinylated CD59 (Homo sapiens, UniProt P13987)
Percentage of the pool, Seq II / %: 0.014

sequence: LWGTHSYTYYRP
tested system: biotinylated CD59 (Homo sapiens, UniProt P13987)
Percentage of the pool, Seq II / %: 0.009

sequence: FVTSNRDHTRG
tested system: biotinylated CD59 (Homo sapiens, UniProt P13987)
Percentage of the pool, Seq II / %: 0.014

Read the next record carefully.
[ask] Given the entry `CPRYVSRGFA` , what Percentage of the pool, Seq II was observed with biotinylated CD59 (Homo sapiens, UniProt P13987)?
[reply] 0.012

###

List of Percentage Average values.
tested system: biotinylated CD59 (Homo sapiens, UniProt P13987)
Construct: Recombinant soluble human CD59 with an additional C-terminal cysteine residue
Sequence (P13987 26-102 limits assumed): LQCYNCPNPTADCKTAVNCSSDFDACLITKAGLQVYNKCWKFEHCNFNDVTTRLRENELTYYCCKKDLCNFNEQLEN
method notes: mRNA-display cyclic peptide screen against CD59-biotin, NGS abundance after 6th selection round
condition set: percentage of the pool averaged across the two sequencing samples, sheet R6
A number alone suffices; assume %.

Past entries and their recorded results:
sequence: HVFGDRSFTRG
Percentage Average / %: 0.027
//
sequence: CLDKWGRLWS
Percentage Average / %: 0.833
//
sequence: YAQGDKLTARG
Percentage Average / %: 0.027
//
sequence: FVTGNREHTRG
Percentage Average / %: 0.030
//
sequence: ASWLPSPCKFN
Percentage Average / %: 0.033
//
sequence: YGASPTSLCSGI
Percentage Average / %: 0.176
//
sequence: RGGTRDTIWG
Percentage Average / %: 0.070
//
sequence: FVSGNSRFRRE
Percentage Average / %: 0.066
//
sequence: WTRGSKDYTRG
Percentage Average / %: 0.168
//
sequence: CFARRVNNSSL
Percentage Average / %: 0.030

Read the next record carefully.
[ask] Need Percentage Average of `CLRRHVTASDV` , thanks.
[reply] 0.031

###

tested system: biotinylated CD59 (Homo sapiens, UniProt P13987)
Construct: Recombinant soluble human CD59 with an additional C-terminal cysteine residue
Sequence (P13987 26-102 limits assumed): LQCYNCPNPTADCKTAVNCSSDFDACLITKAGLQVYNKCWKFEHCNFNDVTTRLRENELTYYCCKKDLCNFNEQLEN
method notes: mRNA-display cyclic peptide screen against CD59-biotin, NGS abundance after 6th selection round
condition set: average of Seq I and Seq II, sheet R6
measured quantity: Percentage of the pool, averaged across the two sequencing samples (%)
A number alone suffices; assume %.

sequence: CYGGRTFIYSWS
recorded value: 0.015
//
sequence: CFLKRDRSASI
recorded value: 0.015
//
sequence: GRLNECHVTWP
recorded value: 0.015

[ask] Need Percentage of the pool, averaged across the two sequencing samples of `PAWGNRQIQYY` , thanks.
[reply] 0.010

[ask] Need Percentage of the pool, averaged across the two sequencing samples of `LNPQGHCLLKL` , thanks.
[reply] 0.016

[ask] Need Percentage of the pool, averaged across the two sequencing samples of `HVFGNRSFARG` , thanks.
[reply] 0.016

[ask] Need Percentage of the pool, averaged across the two sequencing samples of `SWTWGNRTSVRG` , thanks.
[reply] 0.012

###

tested system: biotinylated CD59 (Homo sapiens)
Construct: Recombinant soluble human CD59 with an additional C-terminal cysteine residue
Sequence (P13987 26-102 limits assumed): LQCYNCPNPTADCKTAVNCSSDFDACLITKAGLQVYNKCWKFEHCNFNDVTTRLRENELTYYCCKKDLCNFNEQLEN
method notes: mRNA-display cyclic peptide screen against CD59-biotin, NGS abundance after 6th selection round
condition set: counts normalised by total counts of NGS sample Seq I, sheet R6
measured quantity: Percentage of the pool, Seq I (%)
A number alone suffices; assume %.

Past entries and their recorded results:
sequence: FIRGNSTSVLC
recorded value: 0.008

sequence: CFLNRASFSGI
recorded value: 0.014

sequence: FARGDLYSVLG
recorded value: 0.016

sequence: FVTGNRDHTRV
recorded value: 0.008

sequence: CFSRRLAAGAI
recorded value: 0.008

sequence: SWTRGNRSSVRG
recorded value: 0.010

sequence: FVTGNRDHTRE
recorded value: 0.00754

sequence: FVRGDLYSVIG
recorded value: 0.012

[ask] Need Percentage of the pool, Seq I of `CFSARAIHGSL` , thanks.
[reply] 0.009

[ask] Need Percentage of the pool, Seq I of `CIRGTPTTV` , thanks.
[reply] 0.013

###

tested system: biotinylated CD59 (Homo sapiens)
Construct: Recombinant soluble human CD59 with an additional C-terminal cysteine residue
Sequence (P13987 26-102 limits assumed): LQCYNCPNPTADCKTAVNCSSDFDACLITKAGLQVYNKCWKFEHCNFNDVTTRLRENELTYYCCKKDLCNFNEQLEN
method notes: mRNA-display cyclic peptide screen against CD59-biotin, NGS abundance after 6th selection round
condition set: counts normalised by total counts of sample Seq I; percentage of the pool, sheet R6
measured quantity: Percentage Seq I (%)
A number alone suffices; assume %.

Past entries and their recorded results:
sequence: ASWLPSPCKFN
Percentage Seq I (%): 0.029
//
sequence: VSRGDSTYTLF
Percentage Seq I (%): 0.031
//
sequence: CFAHRITDPNTQ
Percentage Seq I (%): 0.027
//
sequence: CIRGTPTTVWG
Percentage Seq I (%): 0.387
//
sequence: FVRGGLYSVLG
Percentage Seq I (%): 0.020

Read the next record carefully.
[ask] Given the entry `HCWVRGSRNYT` , what Percentage Seq I was observed with biotinylated CD59 (Homo sapiens)?
[reply] 2.570

###

tested system: biotinylated CD59 (Homo sapiens, UniProt P13987)
Construct: Recombinant soluble human CD59 with an additional C-terminal cysteine residue
Sequence (P13987 26-102 limits assumed): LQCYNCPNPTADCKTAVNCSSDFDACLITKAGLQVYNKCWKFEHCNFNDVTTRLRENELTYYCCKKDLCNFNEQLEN
method notes: mRNA-display cyclic peptide screen against CD59-biotin, NGS abundance after 6th selection round
condition set: counts normalised by total counts of NGS sample Seq I, sheet R6
measured quantity: Percentage of the pool, Seq I (%)
A number alone suffices; assume %.

Past entries and their recorded results:
sequence: YSSGSRHWTRS
tested system: biotinylated CD59 (Homo sapiens, UniProt P13987)
Percentage of the pool, Seq I [%]: 0.013
--
sequence: DPICTRYNDPR
tested system: biotinylated CD59 (Homo sapiens, UniProt P13987)
Percentage of the pool, Seq I [%]: 0.011
--
sequence: WTRGSKDYARG
tested system: biotinylated CD59 (Homo sapiens, UniProt P13987)
Percentage of the pool, Seq I [%]: 0.011
--
sequence: IARGDRNHQFF
tested system: biotinylated CD59 (Homo sapiens, UniProt P13987)
Percentage of the pool, Seq I [%]: 0.010
--
sequence: LAWGNRQIQYY
tested system: biotinylated CD59 (Homo sapiens, UniProt P13987)
Percentage of the pool, Seq I [%]: 0.018
--
sequence: SVRGDLYSVLG
tested system: biotinylated CD59 (Homo sapiens, UniProt P13987)
Percentage of the pool, Seq I [%]: 0.017
--
sequence: FVTGNRDHTHG
tested system: biotinylated CD59 (Homo sapiens, UniProt P13987)
Percentage of the pool, Seq I [%]: 0.010
--
sequence: SWTWGNRTSVRG
tested system: biotinylated CD59 (Homo sapiens, UniProt P13987)
Percentage of the pool, Seq I [%]: 0.008
--
sequence: TAWGNRQIQYY
tested system: biotinylated CD59 (Homo sapiens, UniProt P13987)
Percentage of the pool, Seq I [%]: 0.017

[ask] Need Percentage of the pool, Seq I of `TLSTNRDLIRLLAAAAAAARTGGG` , thanks.
[reply] 0.013

###

tested system: biotinylated CD59 (Homo sapiens)
Construct: Recombinant soluble human CD59 with an additional C-terminal cysteine residue
Sequence (P13987 26-102 limits assumed): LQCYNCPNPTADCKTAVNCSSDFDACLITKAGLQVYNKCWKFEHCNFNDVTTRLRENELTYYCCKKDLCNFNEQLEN
method notes: mRNA-display cyclic peptide screen against CD59-biotin, NGS abundance after 6th selection round
condition set: raw NGS counts of peptide sequence, sequencing sample Seq I, sheet R6 (6th selection round)
Entries are sorted into classes by Counts Seq I as follows: bottom range (below 100), center range (100 to below 400), top range (400 or more)

Completed entries (count: 3):
sequence: CFASRTLLNTSV
assigned label: top range
//
sequence: SWQNECFRLRT
assigned label: bottom range
//
sequence: SIRGGRDYTRG
assigned label: top range

[ask] Please classify: `CFAFRLSQTSV`
[reply] top range

[ask] Please classify: `HVFGSRSFTRG`
[reply] center range

[ask] Please classify: `YVFGNRSFTRG`
[reply] top range

[ask] Please classify: `TILGNKHYVRG`
[reply] top range

[ask] Please classify: `GRLNECHVIWS`
[reply] bottom range
